target-entity: C2GnT1 (Homo sapiens)
Sequence (Q02742 1-428): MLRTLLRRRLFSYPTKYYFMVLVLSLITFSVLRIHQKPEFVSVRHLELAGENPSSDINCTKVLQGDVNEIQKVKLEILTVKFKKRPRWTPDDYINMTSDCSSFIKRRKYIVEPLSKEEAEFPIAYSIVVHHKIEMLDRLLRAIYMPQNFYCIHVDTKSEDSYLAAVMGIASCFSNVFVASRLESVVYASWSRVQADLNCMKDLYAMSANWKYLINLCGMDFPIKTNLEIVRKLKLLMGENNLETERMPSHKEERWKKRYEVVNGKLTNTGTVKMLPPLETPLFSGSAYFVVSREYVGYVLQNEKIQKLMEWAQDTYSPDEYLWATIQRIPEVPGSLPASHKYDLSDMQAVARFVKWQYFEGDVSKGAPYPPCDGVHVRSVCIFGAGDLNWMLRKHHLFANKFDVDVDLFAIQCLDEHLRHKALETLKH
experiment-notes: GlcNAc-transferase activity of C2GnT1 with acceptor substrates
Type: biochemical
measurement-setup: acceptor substrate 10 mM
Experimental: Controls included the pAcGP67-GalNAc-T3-sol (24). The kinetic properties were determined with partially purified enzymes expressed in High Five™ cells. Partial purification was performed by consecutive chromatography on Amberlite IRA-95, DEAE-Sephacryl and SP-Sepharose essentially as described (25; 25). […]
value-kind: Substrate specificity, C2GnT1 activity

Sample records with Substrate specificity, C2GnT1 activity:
{"molecule": "CO[C@@H]1O[C@H](CO)[C@H](O)[C@H](O[C@@H]2O[C@H](CO)[C@@H](O)[C@H](O)[C@H]2NC(C)=O)[C@H]1O [β-D-GlcNAc-(1-3)-β-D-Gal-1-Me]", "Substrate specificity, C2GnT1 activity": "<0.1 nmol/h/mg"}
{"molecule": "CC(=O)NC1C(OC2C(O)C(CO)OC(Oc3ccc([N+](=O)[O-])cc3)C2NC(C)=O)OC(CO)C(O)C1O [β-D-GlcNAc-(1-3)-α-D-GalNAc-1-p-Nph]", "Substrate specificity, C2GnT1 activity": "<0.1 nmol/h/mg"}
{"molecule": "CC(=O)N[C@H]1C(O)O[C@H](CO)[C@H](O)[C@@H]1O (stereo partly drawn) [D-GalNAc]", "Substrate specificity, C2GnT1 activity": "<0.1 nmol/h/mg"}
{"molecule": "CC(=O)N[C@H]1[C@H](O[C@H]2[C@@H](O)[C@@H](CO)O[C@@H](O[C@H]3[C@H](O)[C@@H](O)C(O)O[C@@H]3CO)[C@@H]2O)O[C@H](CO)[C@@H](O[C@@H]2O[C@H](CO)[C@H](O)[C@H](O)[C@H]2O)[C@@H]1O (mixture of isomers) [lacto-N-neo-tetraose]", "Substrate specificity, C2GnT1 activity": "<0.1 nmol/h/mg"}
{"molecule": "CC(=O)N[C@H]1[C@@H](Oc2ccc([N+](=O)[O-])cc2)O[C@H](CO)[C@H](O)[C@@H]1O[C@@H]1O[C@H](CO)[C@H](O)[C@H](O)[C@H]1O [β-D-Gal-(1-3)-α-D-GalNAc-1-p-Nph]", "Substrate specificity, C2GnT1 activity": "23.6 nmol/h/mg"}

Q) Quick one: Substrate specificity, C2GnT1 activity for CC(=O)N[C@@H]1[C@@H](O[C@@H]2O[C@H](CO)[C@H](O)[C@H](O)[C@H]2O)[C@@H](O)[C@@H](CO)O[C@@H]1O [β-D-Gal-(1-3)-α-D-GalNAc] ?
A) 19.0 nmol/h/mg

Q) Queued: CC(=O)N[C@H]1[C@@H](Oc2ccc([N+](=O)[O-])cc2)O[C@H](CO)[C@H](O)[C@@H]1O [α-D-GalNAc-1-p-Nph]
A) <0.1 nmol/h/mg

The reported measurements were obtained from patent US6794169B2.
